Experiment: 14-day repeat dose IV toxicity study with toxicokinetic evaluation on Day 1 and Day 14 in rats
Type: in vivo, Wistar rats
Conditions: rat, in vivo, 1 mg/kg, Group 2 (1 mg/kg), range over sexes and Days 1 and 14, read-out: AUCinf
Ends that are not written are not given here.
VALUE TYPE: AUC(0-inf)

Request: Could you tell me which AUC(0-inf) is on file for AMVSEFLKQAWFIENEEQEYVQTLKSSKGGPGSAVSPYPTFNPSSDV-NH2 [Peptide 1] ?
Result: 918 to 1030 ng·h/mL

* * *

Assay: 14-day repeat dose IV toxicity study with toxicokinetic evaluation on Day 1 and Day 14 in rats
Assay type: in vivo, Wistar rats
Conditions: rat, in vivo, iv, 10 mg/kg/day, IV 10 mg/kg/day, male, Day 1, read-out: Vz
Experimental: Peptide 1 in blood samples collected from animals used in the studies (rat and dog) has been measured by an LC-MS/MS method. Analysis of samples collected in the pharmacokinetic study in rats was performed prior to validation of the method. Prior to analysis of samples from the GLP toxicology studies, the method was validated according to GLP to ensure that it is selective, accurate, reproducible, and able to produce reliable results. […]
Ends that are not written are not given here.
VALUE TYPE: Vd

Request: Could you tell me which Vd is on file for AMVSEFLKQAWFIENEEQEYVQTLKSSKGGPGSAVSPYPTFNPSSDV-NH2 [Peptide 1] ?
Result: 0.204 L/kg

* * *

Assay: Clinical test in humans, single 30-min i.v. infusion, plasma PK
Format: in vivo
Conditions: human, in vivo, iv, single 30-min i.v. infusion 200 μg/kg, mean, read-out: AUC0-24
Ends that are not written are not given here.
VALUE TYPE: AUC(0-t) (ng·h/mL)
Give the value in ng·h/mL but do not write ng·h/mL after it.

Request: Could you tell me which AUC(0-t) is on file for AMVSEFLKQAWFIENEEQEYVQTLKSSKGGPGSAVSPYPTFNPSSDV-NH2 [Peptide 1] ?
Result: 2280

* * *

Experiment: 14-day repeat dose IV toxicity study with toxicokinetic evaluation on Day 1 and Day 14 in rats
Format: in vivo, Wistar rats
Settings: rat, in vivo, iv, 10 mg/kg/day, IV 10 mg/kg/day, female, Day 14
Ends that are not written are not given here.
VALUE TYPE: clearance
The answer consists of two parts: a number and, after it, its unit.

Request: Could you tell me which clearance is on file for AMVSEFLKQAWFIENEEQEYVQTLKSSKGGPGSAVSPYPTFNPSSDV-NH2 [Peptide 1] ?
Result: 16.5 mL/min/kg

* * *

Test: Clinical test in humans, three 30-min i.v. infusions 8 hours apart, plasma PK
Assay type: in vivo
Conditions: human, in vivo, iv, 50 ug/kg, three 30-min i.v. infusions 8 h apart, 50 μg/kg each, mean, read-out: AUC0-t3
Ends that are not written are not given here.
VALUE TYPE: AUC (ng·h/mL)
Give the value in ng·h/mL but do not write ng·h/mL after it.

Request: Could you tell me which AUC is on file for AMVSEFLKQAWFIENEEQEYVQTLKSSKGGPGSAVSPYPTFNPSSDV-NH2 [Peptide 1] ?
Result: 437

* * *

Test: 14-day repeat dose IV toxicity study with toxicokinetic evaluation on Day 1 and Day 14 in rats
Assay type: in vivo, Wistar rats
Settings: rat, in vivo, iv, 1 mg/kg/day, IV 1.0 mg/kg/day, male, Day 1
Ends that are not written are not given here.
VALUE TYPE: clearance (mL/min/kg)
Give the value in mL/min/kg but do not write mL/min/kg after it.

Request: Could you tell me which clearance is on file for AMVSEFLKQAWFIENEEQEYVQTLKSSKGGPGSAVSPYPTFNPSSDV-NH2 [Peptide 1] ?
Result: 18

* * *

Experiment: 14-day repeat dose IV toxicity study with toxicokinetic evaluation on Day 1 and Day 14 in rats
Type: in vivo, Wistar rats
Conditions: rat, in vivo, iv, 3 mg/kg/day, IV 3.0 mg/kg/day, female, Day 14
Ends that are not written are not given here.
VALUE TYPE: C0

Request: Could you tell me which C0 is on file for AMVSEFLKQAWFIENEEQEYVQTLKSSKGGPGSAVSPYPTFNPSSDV-NH2 [Peptide 1] ?
Result: 41900 ng/mL

* * *

Experiment: 14-day repeat dose IV toxicity study with toxicokinetic evaluation on Day 1 and Day 14 in rats
Assay type: in vivo, Wistar rats
Details: rat, in vivo, iv, 1 mg/kg/day, IV 1.0 mg/kg/day, male, Day 1, read-out: AUC0-∞ (converted)
Protocol: Peptide 1 in blood samples collected from animals used in the studies (rat and dog) has been measured by an LC-MS/MS method. Analysis of samples collected in the pharmacokinetic study in rats was performed prior to validation of the method. Prior to analysis of samples from the GLP toxicology studies, the method was validated according to GLP to ensure that it is selective, accurate, reproducible, and able to produce reliable results. […]
Ends that are not written are not given here.
VALUE TYPE: AUC(0-inf) (µg·h/mL)
Give the value in µg·h/mL but do not write µg·h/mL after it.

Request: Could you tell me which AUC(0-inf) is on file for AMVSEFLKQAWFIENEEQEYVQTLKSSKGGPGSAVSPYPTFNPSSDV-NH2 [Peptide 1] ?
Result: 0.927

* * *

Experiment: Clinical test in humans, three 30-min i.v. infusions 8 hours apart, plasma PK
Format: in vivo
Conditions: human, in vivo, iv, 140 ug/kg, three 30-min i.v. infusions 8 h apart, 140 μg/kg each, mean, after the last infusion
Protocol: A total of 8 subjects were included in each group. In each group, 6 subjects received the active treatment and 2 received the placebo. […] Plasma samples were analyzed for Peptide 1 using validated Liquid chromatography—Tandem Mass spectrometry (LC-MS/MS) methods by Charles River Laboratories (CRL). […]
Ends that are not written are not given here.
VALUE TYPE: half-life

Request: Could you tell me which half-life is on file for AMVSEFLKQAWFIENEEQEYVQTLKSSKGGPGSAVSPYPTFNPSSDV-NH2 [Peptide 1] ?
Result: 1.94 h

* * *

Experiment: Clinical test in humans, three 30-min i.v. infusions 8 hours apart, plasma PK
Assay type: in vivo
Settings: human, plasma, iv, 250 μg/kg, three 30-min i.v. infusions 8 h apart, 250 μg/kg each, GM, read-out: Cmax3
Ends that are not written are not given here.
VALUE TYPE: Cmax (ng/mL)
Give the value in ng/mL but do not write ng/mL after it.

Request: Could you tell me which Cmax is on file for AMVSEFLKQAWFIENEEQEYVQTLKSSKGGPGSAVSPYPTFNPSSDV-NH2 [Peptide 1] ?
Result: 1780

* * *

Test: PK after single intravenous injection of Peptide 1 in male rats
Design: species or system male Wistar (CRL: WI(Han)) rats
Conditions: rat, in vivo, iv, single IV, terminal phase, range over 0.1-10 mg/kg, read-out: volume of distribution
Ends that are not written are not given here.
VALUE TYPE: Vd

Request: Could you tell me which Vd is on file for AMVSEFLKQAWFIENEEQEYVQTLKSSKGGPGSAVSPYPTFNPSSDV-NH2 [Peptide 1] ?
Result: 0.116 to 0.261 L/kg

* * *

Experiment: 14-day repeat dose IV toxicity study with toxicokinetic evaluation on Day 1 and Day 14 in rats
Assay type: in vivo, Wistar rats
Conditions: rat, in vivo, 1 mg/kg, Group 2 (1 mg/kg), range over sexes and Days 1 and 14
Ends that are not written are not given here.
VALUE TYPE: C0

Request: Could you tell me which C0 is on file for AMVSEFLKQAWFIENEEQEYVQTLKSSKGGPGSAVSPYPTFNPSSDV-NH2 [Peptide 1] ?
Result: 9960 to 11900 ng/mL

* * *

Test: Clinical test in humans, three 30-min i.v. infusions 8 hours apart, plasma PK
Type: in vivo
Conditions: human, in vivo, iv, 250 ug/kg, three 30-min i.v. infusions 8 h apart, 250 μg/kg each, GM, read-out: Global tmax
Ends that are not written are not given here.
VALUE TYPE: Tmax (h)
Give the value in h but do not write h after it.

Request: Could you tell me which Tmax is on file for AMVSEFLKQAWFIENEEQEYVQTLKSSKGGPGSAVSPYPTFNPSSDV-NH2 [Peptide 1] ?
Result: 3.69

* * *

Assay: 14-day repeat dose IV toxicity study with toxicokinetic evaluation on Day 1 and Day 14 in rats
Format: in vivo, Wistar rats
Details: rat, in vivo, iv, 10 mg/kg/day, IV 10 mg/kg/day, male, Day 14
Ends that are not written are not given here.
VALUE TYPE: C0 (µg/mL)
Give the value in µg/mL but do not write µg/mL after it.

Request: Could you tell me which C0 is on file for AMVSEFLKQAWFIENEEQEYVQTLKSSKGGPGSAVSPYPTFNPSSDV-NH2 [Peptide 1] ?
Result: 92.3

* * *

Experiment: 14-day repeat dose IV toxicity study with toxicokinetic evaluation on Day 1 and Day 14 in rats
Type: in vivo, Wistar rats
Conditions: rat, in vivo, iv, 10 mg/kg/day, IV 10 mg/kg/day, male, Day 1
Procedure: Peptide 1 in blood samples collected from animals used in the studies (rat and dog) has been measured by an LC-MS/MS method. Analysis of samples collected in the pharmacokinetic study in rats was performed prior to validation of the method. Prior to analysis of samples from the GLP toxicology studies, the method was validated according to GLP to ensure that it is selective, accurate, reproducible, and able to produce reliable results. […]
Ends that are not written are not given here.
VALUE TYPE: clearance (mL/min/kg)
Give the value in mL/min/kg but do not write mL/min/kg after it.

Request: Could you tell me which clearance is on file for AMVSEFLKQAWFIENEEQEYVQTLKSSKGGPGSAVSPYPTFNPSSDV-NH2 [Peptide 1] ?
Result: 18.1
